# pIC50 per record follows
Molecular target: Amine oxidase [flavin-containing] B (Homo sapiens)
Sequence (P27338 whole entry): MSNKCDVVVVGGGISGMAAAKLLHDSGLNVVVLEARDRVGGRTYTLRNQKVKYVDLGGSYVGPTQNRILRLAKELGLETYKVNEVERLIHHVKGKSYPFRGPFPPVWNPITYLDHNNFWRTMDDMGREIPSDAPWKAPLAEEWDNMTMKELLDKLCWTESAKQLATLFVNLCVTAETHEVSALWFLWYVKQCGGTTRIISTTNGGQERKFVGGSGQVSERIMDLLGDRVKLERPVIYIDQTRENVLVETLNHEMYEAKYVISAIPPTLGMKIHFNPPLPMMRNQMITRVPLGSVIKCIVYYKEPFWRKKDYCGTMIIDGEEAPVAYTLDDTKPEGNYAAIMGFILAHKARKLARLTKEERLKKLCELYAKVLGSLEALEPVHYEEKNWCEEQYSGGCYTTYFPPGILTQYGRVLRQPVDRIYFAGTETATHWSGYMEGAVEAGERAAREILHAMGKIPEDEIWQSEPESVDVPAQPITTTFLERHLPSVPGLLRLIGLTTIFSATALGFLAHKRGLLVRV
Remember the convention: pIC50 equals -log10 of concentration in molar.

compound	readout kind	value observed
CS(=O)(=O)c1ccc(C(=O)/C=C/c2ccc(Cl)cc2)cc1	pIC50	6.33
O=C(/C=C/c1ccc(OCc2ccccc2)cc1)c1ccc(F)cc1	pIC50	6.30

The reported pIC50 of the compound `O=C(/C=C/c1ccc(Cl)cc1)c1ccccc1O` was 6.80

The reported pIC50 of the compound CC(C)=CCOc1ccc(C(=O)/C=C/c2ccccc2)c(O)c1 [CORDOIN] was 4.73

This collection of values is drawn from ChEMBL document CHEMBL1138489.
